// data source = paper PMC9490060

parameter: melting point

molecule	melting point
CC1(C)CC[C@]2(C(=O)OCCn3ncn(-c4ccc(F)cc4)c3=O)[C@H](O)C[C@]3(C)C(=CC[C@@H]4[C@@]5(C)CC[C@H](O)[C@@](C)(C=O)[C@@H]5CC[C@]43C)[C@@H]2C1	176 to 178 °C
CC1(C)CC[C@]2(C(=O)OCc3cn(-c4ccc(Br)cc4)nn3)[C@H](O)C[C@]3(C)C(=CC[C@@H]4[C@@]5(C)CC[C@H](O)[C@@](C)(C=O)[C@@H]5CC[C@]43C)[C@@H]2C1	190 to 192 °C
CC1(C)CC[C@]2(C(=O)OCc3nnc(-c4ccccc4)o3)[C@H](O)C[C@]3(C)C(=CC[C@@H]4[C@@]5(C)CC[C@H](O)[C@@](C)(C=O)[C@@H]5CC[C@]43C)[C@@H]2C1	130 to 132 °C

Then there is this compound:
melting point for CC1(C)CC[C@]2(C(=O)OCc3cn(-c4ccccc4)nn3)[C@H](O)C[C@]3(C)C(=CC[C@@H]4[C@@]5(C)CC[C@H](O)[C@@](C)(C=O)[C@@H]5CC[C@]43C)[C@@H]2C1 ?
186 to 188 °C
